src = paper PMC5540273

- System: PRKCE
- conditionNotes: concentration: 1 μM, replicates: in singlicate; n = 1;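 note: KINOMEscan kinase panel screen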
// False strictly below 10% in %Inh; True otherwise

- compound: "CCc1nc(-c2cccc(N(C)S(=O)(=O)c3ccccc3)c2)c(-c2ccnc(Nc3ccc(N4CCN(C(C)=O)CC4)nc3)n2)s1 [GSK1645895]"
  className: "False"

Note: attention shifts to another entry.
IN: Confirm if %Inh reported for the compound Cn1ccc2ncnc(Oc3ccc(NC(=O)Nc4cccnc4)c(Cl)c3)c21 is 10% or above.
OUT: False

---

- System: RIOK2
- conditionNotes: concentration: 1 μM, replicates: in singlicate; n = 1
Define the label as fulfilled when %Inh is strictly less than 3% and as not fulfilled in all remaining cases.

- molecule: "Fc1cccc(COc2ccc(Nc3ncnc4cc[nH]c34)cc2Cl)c1"
  testSystem: "RIOK2"
  className: "not fulfilled"
- molecule: "Nc1nc(-c2ccc3c(N)n[nH]c3c2)cc(N2CCCCC2)n1"
  testSystem: "RIOK2"
  className: "not fulfilled"
- molecule: "Fc1ccc(-c2ncn(CCCNCc3ccccc3)c2-c2ccncc2)cc1"
  testSystem: "RIOK2"
  className: "not fulfilled"
- molecule: "Clc1cccc(-c2nc(Nc3ccncc3)c3ccccc3n2)c1"
  testSystem: "RIOK2"
  className: "fulfilled"
- molecule: "CC(=O)Nc1n[nH]c2ncc(-c3ccccc3)cc12"
  testSystem: "RIOK2"
  className: "not fulfilled"
- molecule: "O=C(NCCCN1CCCC1=O)c1cnc(NCc2cc(Cl)ccc2Cl)nc1NC1CCNCC1"
  testSystem: "RIOK2"
  className: "fulfilled"

IN: Find out if reported %Inh for CS(=O)(=O)CCNCc1nc(-c2ccc3ncnc(Nc4ccc(OCc5cccc(F)c5)c(Cl)c4)c3c2)cs1.Cl is less than 3%
OUT: fulfilled

IN: For this molecule, is %Inh lower than 3%? CNc1nccc(-c2c(-c3ccc(F)cc3)ncn2CCCN2CCOCC2)n1
OUT: fulfilled

IN: Lab note: confirm whether the reported %Inh for this molecule is below 3%, equality not counting. molecule: CCC(CC)(CC)n1cnc2c(N)ncnc21
OUT: not fulfilled
